Ref: patent US20050070692A1

Biological target: human IL-1β (human, UniProt P01584 117-269)
Experiment: cell-based or functional assay
attribute_measured: IC50, inhibition of human IL-1β stimulated proliferation (Picomolar)
Supply the numeric figure in Picomolar, leaving out any unit text.

- binder: "humanized antibody Hu007 (antibody, human IgG1, kappa, V domains shown, Human IgG1 kappa; also called WT; Hu007 WT) VH: QVQLVQSGAEVKKPGASVKVSCKVSGYTFSRYWIEWVRQAPGKGLEWIGEILPGNGNINYNEKFKGKATITADTSTDTAYMELSSLRSEDTAVYYCSTIYYDYDQGFTYWGQGTLVTVSS VL: DIQMTQSPSSLSASVGDRVTITCKASQDIDRYLSWFQQKPGKAPKSLIYRVKRLVDGVPSRFSGSASGTDYTLTISSLQPEDFATYYCLQYDEFPYTFGQGTKLEIKR"
  reported_value: 57
- binder: "Hu007 analog N55D (antibody, human IgG1, kappa, V domains shown, IgG1; Heavy chain of Hu007 with N55D, co-transfected with the WT Hu007 light chain; It mimics fully deamidated Hu007; also called heavy chain CDR2 analog N55D) VH: QVQLVQSGAEVKKPGASVKVSCKVSGYTFSRYWIEWVRQAPGKGLEWIGEILPGDGNINYNEKFKGKATITADTSTDTAYMELSSLRSEDTAVYYCSTIYYDYDQGFTYWGQGTLVTVSS VL: DIQMTQSPSSLSASVGDRVTITCKASQDIDRYLSWFQQKPGKAPKSLIYRVKRLVDGVPSRFSGSASGTDYTLTISSLQPEDFATYYCLQYDEFPYTFGQGTKLEIKR"
  reported_value: 1100

Then this binder:
Problem: I am curious: what IC50, inhibition of human IL-1β stimulated proliferation value has been reported for Hu007 analog G56A (antibody, human IgG1, kappa, V domains shown, IgG1; Heavy chain of Hu007 with G56A, co-transfected with the WT Hu007 light chain) VH: QVQLVQSGAEVKKPGASVKVSCKVSGYTFSRYWIEWVRQAPGKGLEWIGEILPGNANINYNEKFKGKATITADTSTDTAYMELSSLRSEDTAVYYCSTIYYDYDQGFTYWGQGTLVTVSS VL: DIQMTQSPSSLSASVGDRVTITCKASQDIDRYLSWFQQKPGKAPKSLIYRVKRLVDGVPSRFSGSASGTDYTLTISSLQPEDFATYYCLQYDEFPYTFGQGTKLEIKR ?
Solution: 184
